system: COLO 205; assay: NCI tumour cell line growth inhibition, 48 h
Active and inactive are the calls of the source. Rule as the data show it: active = GI50 up to about 1.1 µM and inactive = higher.
Outcome codes: active, inactive

{"COMPOUND": "COC1(C)/C=N/CC(C)(C)NC(=O)C(C)(OC)/C=N/CC(C)(C)NC1=O (centres undefined)", "ASSIGNED CLASS": "inactive"}
{"COMPOUND": "Cc1c2ccnc(C(=O)NCCN(C)C)c2cc2c3cc(O)ccc3n(C)c12", "ASSIGNED CLASS": "active"}
{"COMPOUND": "CCN(CC)c1oc(N(CC)CC)c(C(=O)Nc2ccccn2)c(=O)c1C(C)=O", "ASSIGNED CLASS": "inactive"}
{"COMPOUND": "O=C(c1ccco1)C1CC(c2ccc3ccccc3c2O)=NN1c1ccc([N+](=O)[O-])cc1[N+](=O)[O-] (centres undefined)", "ASSIGNED CLASS": "inactive"}
{"COMPOUND": "NC(Cc1ccccc1)c1nccs1 (centres undefined)", "ASSIGNED CLASS": "inactive"}
{"COMPOUND": "O=C(NC(CO)Cc1ccc(Oc2cc(CC(CO)NC(=O)OCc3ccccc3)ccc2OC(=O)OCc2ccccc2)cc1)OCc1ccccc1 (centres undefined)", "ASSIGNED CLASS": "inactive"}
{"COMPOUND": "CC(=O)NC1C(OCc2ccccc2)OC(CO)C(O)C1OCC(=O)N[C@@H](C)C(=O)N[C@H](CCC(=O)NCCCNc1ccc([N+](=O)[O-])c2[nH]c3ccccc3c(=O)c12)C(N)=O (some centres undefined)", "ASSIGNED CLASS": "inactive"}
{"COMPOUND": "COC(=O)/C=C/C(=O)C1C(C(=O)OC)C2(C(=O)OC)CCC1(C(=O)OC)N2 (centres undefined)", "ASSIGNED CLASS": "inactive"}
{"COMPOUND": "CCCCC(C(=O)NCCNC(=O)CCC(=O)N(C)O)C(=O)NCCNC(=O)CCC(=O)N(C)O", "ASSIGNED CLASS": "inactive"}
{"COMPOUND": "C/C(=N/NC(=S)Nc1ccc(Cl)cc1)c1cccc(/C(C)=N\\NC(=S)Nc2ccc(Cl)cc2)n1", "ASSIGNED CLASS": "inactive"}
{"COMPOUND": "Brc1cccc(Nc2ncnc3sc4c(c23)CCC(Nc2cccc(Br)c2)C4)c1 (centres undefined)", "ASSIGNED CLASS": "inactive"}
{"COMPOUND": "CCOP(=O)(OCC)C1=C(c2ccccc2)OC(N)=C(C#N)C1c1ccc(Cl)cc1 (centres undefined)", "ASSIGNED CLASS": "inactive"}
{"COMPOUND": "Nc1nc(Nc2cc(F)c(Cl)c(F)c2)cc(=O)[nH]1", "ASSIGNED CLASS": "inactive"}
{"COMPOUND": "O=c1[nH]nc(Cn2c3ccc(Br)cc3c3nc4ccccc4nc32)n1C1CCCCC1", "ASSIGNED CLASS": "inactive"}
{"COMPOUND": "Cc1ccc(/N=C2\\C(=O)C3=C(OC(C)(C)CC3)c3ccccc32)cc1", "ASSIGNED CLASS": "inactive"}
{"COMPOUND": "NC(=S)N/N=C\\CC(O)(C(F)(F)F)C(F)(F)F", "ASSIGNED CLASS": "inactive"}
{"COMPOUND": "CC(C)(C)OC(=O)NCC(=O)OCc1ccccc1", "ASSIGNED CLASS": "inactive"}
{"COMPOUND": "COc1cc(S(=O)(=O)Nc2nc(-c3ccc(N4C(=O)CSC4c4cccs4)cc3)cs2)ccc1Cl (centres undefined)", "ASSIGNED CLASS": "inactive"}
{"COMPOUND": "CN(C)/N=N/c1ccc([N+](=O)[O-])cc1C(N)=O", "ASSIGNED CLASS": "inactive"}

Data credit: ChEMBL document CHEMBL1201862
